Each item that follows carries a reported TGI.
test system: SK-MEL-28 melanoma; assay: NCI tumour cell line growth inhibition, 48 h
measurement kind: TGI

[[record]]
compound = "CC(C)CCS(=O)(=O)OCCCCOS(=O)(=O)CCC(C)C"
system_name = "SK-MEL-28 melanoma"
measurement_kind = "TGI"
recorded_result = "> 100 µM"

[[record]]
compound = "Cc1ccc(NC(=O)Nc2ccc(-c3cccnc3)cc2N2CCC(CO)CC2)cc1"
system_name = "SK-MEL-28 melanoma"
measurement_kind = "TGI"
recorded_result = "5.42 µM"

[[record]]
compound = "Cc1nc2sccn2c1-c1csc(Nc2ccccc2Cl)n1"
system_name = "SK-MEL-28 melanoma"
measurement_kind = "TGI"
recorded_result = "> 100 µM"

[[record]]
compound = "Cc1c(C(=O)CC(=O)C(=O)Nc2ccccc2C(F)(F)F)[n+](=O)c2ccccc2n1[O-]"
system_name = "SK-MEL-28 melanoma"
measurement_kind = "TGI"
recorded_result = "92.1 µM"

[[record]]
compound = "O=C(NC(=O)c1ccccc1[N+](=O)[O-])Nc1ccc(Oc2ncc(Br)cn2)c(Cl)c1"
system_name = "SK-MEL-28 melanoma"
measurement_kind = "TGI"
recorded_result = "0.0733 µM"

[[record]]
compound = "CC(C)=CCc1c2c(c3occ(-c4ccc(O)cc4)c(=O)c3c1O)CC(C(C)(C)O)O2 (centres undefined)"
system_name = "SK-MEL-28 melanoma"
measurement_kind = "TGI"
recorded_result = "58.5 µM"

[[record]]
compound = "Cc1c(O)c(O)cc[n+]1C1OC(CO)C(O)C1O (centres undefined)"
system_name = "SK-MEL-28 melanoma"
measurement_kind = "TGI"
recorded_result = "> 100 µM"

[[record]]
compound = "C[C@@H]1CC[C@]2(C(=O)O)CC[C@]3(C)C(=CC[C@@H]4[C@@]5(C)CC[C@H](O)C(C)(C)[C@@H]5CC[C@]43C)[C@@H]2[C@]1(C)O"
system_name = "SK-MEL-28 melanoma"
measurement_kind = "TGI"
recorded_result = "26.9 µM"

[[record]]
compound = "Cc1cc(-c2nc(C(=O)Nc3cc4oc(N5CCOCC5)nc4nc3N3CC[C@@H](O)C3)co2)ccn1"
system_name = "SK-MEL-28 melanoma"
measurement_kind = "TGI"
recorded_result = "> 100 µM"

[[record]]
compound = "Cc1nc2n(c1/C=C1/C(=O)Nc3cccc(Cl)c31)CCS2"
system_name = "SK-MEL-28 melanoma"
measurement_kind = "TGI"
recorded_result = "> 100 µM"

[[record]]
compound = "CC(=O)[CH-]C(=O)c1ccccc1.CC(=O)[CH-]C(=O)c1ccccc1.CN(C)c1ccc([O-])cc1.CN(C)c1ccc([O-])cc1.Cl.[Ti+4]"
system_name = "SK-MEL-28 melanoma"
measurement_kind = "TGI"
recorded_result = "> 31.6 µM"

[[record]]
compound = "Cc1nc2c(ccc3ncccc32)[nH]1"
system_name = "SK-MEL-28 melanoma"
measurement_kind = "TGI"
recorded_result = "> 100 µM"

[[record]]
compound = "CC(C)(C)OC(=O)NCCCCC1NC(=O)[C@@H]2Cc3c([nH]c4ccccc34)C(C3CCCCC3)N2C1=O (some centres undefined)"
system_name = "SK-MEL-28 melanoma"
measurement_kind = "TGI"
recorded_result = "> 100 µM"

[[record]]
compound = "CN(C)N=Nc1ccc(C(N)=O)cc1"
system_name = "SK-MEL-28 melanoma"
measurement_kind = "TGI"
recorded_result = "> 100 µM"

